Where do the numbers come from? From ChEMBL document CHEMBL5543134.

# Test system: A2780
# experimentalProtocol: cells
# runConditions: Homo sapiens, A2780, 72 h
metric: IC50 (nM)
One number for each entry, in nM.

Known results for compounds:
Entry "CCOC(=O)c1ccc(NC(=O)NCc2ccncc2)cc1" : reported IC50 = ?
320

Okay, and "CCN(CC)S(=O)(=O)c1ccc(NC(=O)NCc2ccncc2)cc1" ?
364

Okay, and "CCOC(=O)c1ccc(NC(=S)NCc2ccncc2)cc1" ?
1000

Turning to the following compound.
Entry "Cn1nccc1-c1nc2ccc(NC(=O)NCc3ccncc3)cn2n1" : reported IC50 = ?
160
